Tested on: S180-bearing mice
Assay: Bio-distribution in tumor-bearing mice
Format: in vivo
Details: S180-bearing mice, tail vein, 60 min
MEASURED_PARAMETER: Stomach uptake (% ID/g)
Answers are plain numbers, in % ID/g.

[Q] Using the record for O=C(CCCCC[N+]#[C][99Tc-5]([C]#[N+]CCCCCC(=O)NC1C(O)OC(CO)C(O)C1O)([C]#[N+]CCCCCC(=O)NC1C(O)OC(CO)C(O)C1O)([C]#[N+]CCCCCC(=O)NC1C(O)OC(CO)C(O)C1O)([C]#[N+]CCCCCC(=O)NC1C(O)OC(CO)C(O)C1O)[C]#[N+]CCCCCC(=O)NC1C(O)OC(CO)C(O)C1O)NC1C(O)OC(CO)C(O)C1O (stereo not shown) [[^99mTc-(CN5DG)6]^+] , report its Stomach uptake.
[A] 0.37
